Provenance of the data: patent US12049445B2

Where a name gives a salt, the structure may show the parent alone.
endpoint.label: IC50 (nM)
Field: numeric (nM). Do not append units.

Q) Give IC50; test system human S1P1 (EDG-1) (Homo sapiens); molecule CC1=C(CNCCC(=O)O)CCc2cc(OCCCC3CCCCC3)ccc21 [Comparative Compound C, hydrochloride]
A) 1

----------
Consider the following compounds; for each one, report its pEC50.
- subject.of.test: human S1P5 (EDG-8) (Homo sapiens, UniProt Q9H228)
- Sequence (Q9H228 whole entry): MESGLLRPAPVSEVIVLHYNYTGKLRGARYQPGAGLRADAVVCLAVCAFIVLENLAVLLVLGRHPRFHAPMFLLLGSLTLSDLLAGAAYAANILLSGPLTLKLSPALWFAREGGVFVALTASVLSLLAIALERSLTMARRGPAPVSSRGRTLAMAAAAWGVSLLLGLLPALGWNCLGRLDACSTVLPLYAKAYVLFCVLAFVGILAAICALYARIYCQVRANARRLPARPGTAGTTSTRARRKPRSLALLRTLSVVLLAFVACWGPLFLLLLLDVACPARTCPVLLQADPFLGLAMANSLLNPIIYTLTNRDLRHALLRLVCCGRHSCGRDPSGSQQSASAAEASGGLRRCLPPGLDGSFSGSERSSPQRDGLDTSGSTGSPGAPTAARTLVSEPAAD
- experiment.notes: S1P receptor agonist activity by monitoring intracellular calcium concentration (S1P5)
- condition: CHO cells overexpressing human S1P5 (EDG-8) gene; intracellular calcium increase; S1P signal = 100% activity
Scale note: pEC50 = -log10(concentration in M).

Q) Enter recorded pEC50 with human S1P5 (EDG-8) (Homo sapiens, UniProt Q9H228) for C[C@H]1Cc2cc(OC/C=C/C(F)(F)F)ccc2C=C1CN1CC(F)(C(=O)O)C1 [Example 15 (82)] here.
A) 8.05

Q) Answer briefly: pEC50 recorded on human S1P5 (EDG-8) (Homo sapiens, UniProt Q9H228) for CCCc1ccc(COc2ccc3c(c2)CCC(CN2CC(C(=O)O)C2)=C3C)c(OC)c1 [Comparative Compound B, reference compound]
A) 8.70

Q) Please indicate recorded pEC50 of CCCCCCCCOc1ccc2c(c1)CCC(CN1CC(C(=O)O)C1)=C2C.Cl [Comparative Compound A, hydrochloride, reference compound] measured with human S1P5 (EDG-8) (Homo sapiens, UniProt Q9H228).
A) 8.52

Q) Name the recorded pEC50 of CC(N[C@H]1C[C@@H](C(=O)O)C1)C1=Cc2ccc(OCCCC(F)(F)F)cc2C[C@@H]1C (stereo partly drawn) [Example 47 (2)] , assay system human S1P5 (EDG-8) (Homo sapiens, UniProt Q9H228).
A) 5.96

Q) Enter pEC50 (test system human S1P5 (EDG-8) (Homo sapiens, UniProt Q9H228)) for CCCCCOc1ccc2c(c1)C[C@H](C)C(CN1CC(C(=O)O)C1)=C2 [Example 15]
A) 8.52

Q) Give pEC50 only, for C[C@H]1Cc2cc(OCCC(F)(F)F)ccc2C=C1CN1CC(F)(C(=O)O)C1 [Example 15 (86)] , using human S1P5 (EDG-8) (Homo sapiens, UniProt Q9H228) data.
A) 7.59

Q) Give reported pEC50 for CCCOCc1ccc2c(c1)C[C@H](C)C(CN1CC(C(=O)O)C1)=C2 [Example 57 (2)] (human S1P5 (EDG-8) (Homo sapiens, UniProt Q9H228))
A) 7.01

Q) Provide pEC50, system human S1P5 (EDG-8) (Homo sapiens, UniProt Q9H228), entry C[C@H]1Cc2cc(OCCCC(F)(F)F)ccc2C=C1CN1CC(C(=O)O)C1 [Example 15 (34)]
A) 7.70

Q) Name the value of pEC50 reported for C[C@H]1Cc2cc(OCCCC(F)(F)F)ccc2C=C1CN1CC[C@@H](C(=O)O)C1 [Example 15 (72)] when tested on human S1P5 (EDG-8) (Homo sapiens, UniProt Q9H228).
A) 7.66

Q) State pEC50 (human S1P5 (EDG-8) (Homo sapiens, UniProt Q9H228)) of [2H]C([2H])([2H])C([2H])([2H])C([2H])([2H])C([2H])([2H])Oc1ccc2c(c1)C[C@H](C)C(CN1CC(C(=O)O)C1)=C2 [Example 15 (70)] .
A) 7.92

Q) // fetch pEC50; item: C[C@H]1Cc2cc(OCCC(F)=C(F)F)ccc2C=C1CN1CC(F)(C(=O)O)C1 [Example 15 (52)] ; system: human S1P5 (EDG-8) (Homo sapiens, UniProt Q9H228)
A) 7.82
